target: HDAC1 (Homo sapiens, UniProt Q13547)
Sequence (Q13547 whole entry): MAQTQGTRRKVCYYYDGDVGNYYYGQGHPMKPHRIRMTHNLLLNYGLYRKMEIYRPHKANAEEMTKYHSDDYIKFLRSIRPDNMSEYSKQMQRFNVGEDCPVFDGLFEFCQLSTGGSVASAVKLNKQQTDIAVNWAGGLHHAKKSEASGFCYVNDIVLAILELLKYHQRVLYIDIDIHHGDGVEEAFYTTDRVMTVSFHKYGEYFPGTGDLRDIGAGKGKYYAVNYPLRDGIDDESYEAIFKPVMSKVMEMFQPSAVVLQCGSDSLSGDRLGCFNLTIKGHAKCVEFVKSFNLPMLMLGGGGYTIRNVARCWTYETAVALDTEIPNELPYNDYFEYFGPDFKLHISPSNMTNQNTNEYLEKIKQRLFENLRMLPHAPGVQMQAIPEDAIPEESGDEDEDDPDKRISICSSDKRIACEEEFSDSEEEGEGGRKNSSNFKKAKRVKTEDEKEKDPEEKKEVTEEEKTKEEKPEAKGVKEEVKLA
property_name: Kd

Provide Kd value for the following compound: O=C(CCCCCCC(=O)Nc1ccc(CNC(=S)Nc2ccc(-c3c4ccc(=O)cc-4oc4cc(O)ccc34)c(C(=O)O)c2)cc1)NO
16 nM
